target: Cytochrome P450 3A4 (Homo sapiens); experiment: qHTS Assay for Inhibitors and Substrates of Cytochrome P450 3A4 (AID 884); conditions: recombinant CYP3A4, Luciferin-PPXE luminescence; series mostly up to 57.1 µM; also: nearly all actives have a fitted effect of over 50% in size
Inconclusive results are not listed. Active and inactive are the calls of the source. Calls follow the shape of the dose curve; as a rule, active = well fitted inhibition curve with a large enough effect; inconclusive = small, poorly fitted or top-dose-only effect; inactive = no such curve, though single readings can be large or run the other way.
Pick from T = active, F = inactive when you respond.

A selection of reference data follows.
COMPOUND	LABEL VALUE
O=C(c1csnn1)N1CCC2(CC1)CN(c1ccccn1)C2	F
CCCCNc1nc(C)nc2c1nc(-c1ccccc1)n2C1CCN(Cc2ccccc2)C1 (centres undefined)	T
Cc1ccccc1-c1ccc2ncnc(NC3CC3)c2c1	T
CCCn1c(C)nc2c(N3CCC(N4CCN(C)CC4)CC3)nc(C)nc21	F
COc1ccccc1CCn1c(=O)c(-c2cc(F)cc(F)c2)nc2cncnc21	T
O=c1c(-c2cccs2)nc2cncnc2n1Cc1ccccc1	T
O=C(c1cnccn1)N1CCC[C@@]2(CCN(Cc3cc(C(F)(F)F)cc(C(F)(F)F)c3)C2)C1	T
COCCn1c(=O)c(-c2cccs2)nc2cnc(N(C)C)nc21	T
CS(=O)(=O)Nc1cccc(-c2ccc3ncnc(NC4CC4)c3c2)c1	T
Cc1ccccc1-c1cc(Nc2ccccc2)ncn1	F

Problem: Called result for N#Cc1cccc(-c2cncnc2NCc2cccs2)c1
Solution: T

Data credit: PubChem BioAssay (NCATS)
